The reported numbers originate from paper PMC7531004.

test system: Streptococcus pyogenes SSI-9; assay: Antibacterial activity assay of bead-derived peptides (three concentrations); assay type: cell-based; design: key: +++: inhibition by the 640-fold diluted peptide solution; ++: inhibition by the 160-fold diluted solution; +: inhibition by the 40-fold diluted solution; -: no inhibition; settings: S. pyogenes, bead-derived peptide solution, three concentrations
Where a SMILES comes first, the peptide text is derived from it. [ ]: non-standard residue; d: D form. The star is where a group is joined. NHCH2CH2OH = OCCN*; For = O=C*

COMPOUND	TARGET_OF_ASSAY	antibacterial activity
CC(C)C[C@@H](NC(=O)[C@H](Cc1c[nH]c2ccccc12)NC(=O)[C@H](NC(=O)[C@H](Cc1c[nH]c2ccccc12)NC(=O)[C@@H](CC(C)C)NC(=O)[C@H](Cc1c[nH]c2ccccc12)NC(=O)[C@@H](CC(C)C)NC(=O)[C@@H](NC(=O)[C@H](NC(=O)[C@H](C)NC(=O)[C@H](NC(=O)[C@H](C)NC(=O)CNC(=O)[C@@H](NC=O)C(C)C)[C@H](C)O)C(C)C)C(C)C)C(C)C)C(=O)N[C@@H](Cc1c[nH]c2ccccc12)C(=O)NCCO [compound 4440] (For-VGA[dT]A[dV]V[dL]W[dL]W[dV]W[dL]W-NHCH2CH2OH)	Streptococcus pyogenes SSI-9	-
CNC(=O)C[C@@H](NC(=O)[C@@H](NC(=O)[C@@H](CC(C)C)NC(=O)[C@H](C)NC(=O)[C@@H](CC(C)C)NC(=O)[C@H](C)NC(=O)CNC(=O)[C@@H](NC=O)C(C)C)C(C)C)C(=O)N[C@@H](Cc1c[nH]c2ccccc12)C(=O)N[C@H](CC(C)C)C(=O)N[C@@H](Cc1c[nH]c2ccccc12)C(=O)N[C@H](CC(C)C)C(=O)N[C@@H](Cc1c[nH]c2ccccc12)C(=O)N[C@@H](C(=O)N[C@@H](Cc1c[nH]c2ccccc12)C(=O)NCCO)C(C)C [compound 5491] (For-VGA[dL]A[dL]V[dD](NHMe)W[dL]W[dL]W[dV]W-NHCH2CH2OH)	Streptococcus pyogenes SSI-9	-
CNC(=O)C[C@@H](NC(=O)[C@H](C)NC(=O)[C@H](NC(=O)[C@H](C)NC(=O)CNC(=O)[C@@H](NC=O)C(C)C)C(C)C)C(=O)N[C@H](C(=O)N[C@@H](C(=O)N[C@@H](Cc1c[nH]c2ccccc12)C(=O)N[C@H](CC(C)C)C(=O)N[C@@H](Cc1c[nH]c2ccccc12)C(=O)N[C@@H](C(=O)N[C@@H](Cc1c[nH]c2ccccc12)C(=O)N[C@H](CC(C)C)C(=O)N[C@@H](Cc1c[nH]c2ccccc12)C(=O)NCCO)C(C)C)C(C)C)C(C)C [compound 12938] (For-VGA[dV]A[dD](NHMe)V[dV]W[dL]W[dV]W[dL]W-NHCH2CH2OH)	Streptococcus pyogenes SSI-9	-
CC(C)C[C@@H](NC(=O)[C@H](C)NC(=O)[C@H](NC(=O)[C@H](C)NC(=O)CNC(=O)[C@@H](NC=O)C(C)C)C(C)C)C(=O)N[C@H](C(=O)N[C@H](CC(C)C)C(=O)N[C@@H](Cc1c[nH]c2ccccc12)C(=O)N[C@H](CC(C)C)C(=O)N[C@@H](Cc1c[nH]c2ccccc12)C(=O)N[C@@H](C(=O)N[C@@H](Cc1c[nH]c2ccccc12)C(=O)N[C@@H](C(=O)N[C@@H](Cc1c[nH]c2ccccc12)C(=O)NCCO)[C@H](C)O)C(C)C)C(C)C [compound 6943] (For-VGA[dV]A[dL]V[dL]W[dL]W[dV]W[dT]W-NHCH2CH2OH)	Streptococcus pyogenes SSI-9	-
